Every entry's value here was drawn from patent US20220010021A1.

Kindly state HTRF cAMP EC50 for each of the entries shown.
# Test System: human glucagon receptor (human) (UniProt P47871)
# Sequence (P47871 26-477): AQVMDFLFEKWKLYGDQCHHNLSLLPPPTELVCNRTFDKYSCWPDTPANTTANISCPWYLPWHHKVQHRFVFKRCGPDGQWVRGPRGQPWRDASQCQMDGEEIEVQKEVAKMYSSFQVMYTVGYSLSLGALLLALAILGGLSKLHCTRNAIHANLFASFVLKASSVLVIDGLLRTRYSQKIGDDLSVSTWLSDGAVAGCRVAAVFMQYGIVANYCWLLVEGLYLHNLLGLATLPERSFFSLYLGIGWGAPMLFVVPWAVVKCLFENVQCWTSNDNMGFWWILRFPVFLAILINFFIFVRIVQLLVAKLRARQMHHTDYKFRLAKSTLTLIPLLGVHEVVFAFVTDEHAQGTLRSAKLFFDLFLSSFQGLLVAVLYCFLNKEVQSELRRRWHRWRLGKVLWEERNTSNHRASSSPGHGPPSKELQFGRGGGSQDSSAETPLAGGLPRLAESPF
# Assay Notes: cell-based or functional assay
Ends that are not written are not given here.

// below: answered binders
{"Binder": "GHGEGTFTSDKSKQLEEEAVRLFIEWLKAGGPKKIRYS-NH2 [P014]", "HTRF cAMP EC50": "0.0054 µM"}
{"Binder": "GHGEGTFTSDLSKQLEEEAVRLFIEWLKAGGPSSGAPPPS-NH2 [P017]", "HTRF cAMP EC50": "> 0.01 µM"}
{"Binder": "GHGEGTFTSDKSKQLEEEAVRLFIEWLKAGGPSSGAPPPS-NH2 [P021]", "HTRF cAMP EC50": "> 0.01 µM"}
{"Binder": "HGEGTFTSDLSKQLEEERVQLFIEWLKATGPSSGAPPPS-NH2 [P008]", "HTRF cAMP EC50": "> 0.01 µM"}

Shifting focus to the binder that follows.
Query block: Please indicate HTRF cAMP EC50 recorded for GHGEGTFTSDLSKQLEEEAVRLFIEWLKAGGPKKIRYS-NH2 [P013]
Result block: > 0.01 µM
